experimentalTarget: T1, RBM7 RRM K81A (Homo sapiens, UniProt Q9Y580 6-94, K81A)
T1 sequence: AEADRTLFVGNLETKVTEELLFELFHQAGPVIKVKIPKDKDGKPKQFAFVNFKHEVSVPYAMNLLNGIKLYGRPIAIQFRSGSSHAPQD
assayDetails: fluorescence anisotropy; FA: 50 mM Tris pH 7.0 (also given as pH 8), 200 mM NaCl, 10 mM 2-mercaptoethanol, 20 C; NMR: 20 mM Bis-Tris pH 7.0, 200 mM NaCl, 4 mM 2-mercaptoethanol; pull-down: HSB, 1 h at 30 C
protocolConditions: protein: recombinant; tags: 6xHis-Smt3 removed with Ulp1; label: 5' fluorescein
pKd: −log10 of the molar value.

# binder, pKd
data = [
    ("CUCUCUC (ssRNA) [Y7]", 4.00),
]
